# Method Notes: Example 18 cynomolgus monkey PK study (SC and IM)
# Type: in vivo, cynomolgus monkeys
# Condition Summary: male, cynomolgus monkey, plasma, intramuscular, 20 mg/kg equivalent of EFdA, IM 20 mg/kg equivalent of EFdA; Mean; 0.292 days; read-out: Example 18 plasma concentrations
Measured Quantity: concentration at 0.292 days (ng/mL)
Hi! Could you send only the number? It should be in ng/mL, unit omitted.

The value of concentration at 0.292 days measured for the compound C#C[C@]1(COC(=O)CCCCCCCCC)O[C@@H](n2cnc3c(N)nc(F)nc32)C[C@@H]1OC(=O)CCCCCCCCC turned out to be 18.3

====

# Method Notes: Example 18 cynomolgus monkey PK study (SC and IM)
# Type: in vivo, cynomolgus monkeys
# Condition Summary: male, cynomolgus monkey, plasma, intramuscular, 20 mg/kg equivalent of EFdA, IM 20 mg/kg equivalent of EFdA; Monkey 2003; 17 days; read-out: Example 18 plasma concentrations
Measured Quantity: concentration at 17 days (ng/mL)
Kindly provide the numeric value in ng/mL only, without the unit symbol.

C#C[C@]1(COC(=O)CCCCCCCCC)O[C@@H](n2cnc3c(N)nc(F)nc32)C[C@@H]1OC(=O)CCCCCCCCC has a reported concentration at 17 days of 0.154

====

# Method Notes: Example 18 cynomolgus monkey PK study (SC and IM)
# Assay type: in vivo, cynomolgus monkeys
# Condition Summary: male, cynomolgus monkey, plasma, intramuscular, 20 mg/kg equivalent of EFdA, IM 20 mg/kg equivalent of EFdA; Monkey 2003; 2 days; read-out: Example 18 plasma concentrations
Measured Quantity: concentration at 2 days (ng/mL)
Answer with a number only, understood to be in ng/mL.

// field: concentration at 2 days; key: C#C[C@]1(COC(=O)CCCCCCCCC)O[C@@H](n2cnc3c(N)nc(F)nc32)C[C@@H]1OC(=O)CCCCCCCCC ; value = 0.387

====

# Method Notes: Example 18 cynomolgus monkey PK study (SC and IM)
# Format: in vivo, cynomolgus monkeys
# Condition Summary: male, cynomolgus monkey, plasma, intramuscular, 20 mg/kg equivalent of EFdA, IM 20 mg/kg equivalent of EFdA; Monkey 2003; 0.292 days; read-out: Example 18 plasma concentrations
Measured Quantity: concentration at 0.292 days (ng/mL)
Numbers only here, please. The scale is ng/mL.

molecule C#C[C@]1(COC(=O)CCCCCCCCC)O[C@@H](n2cnc3c(N)nc(F)nc32)C[C@@H]1OC(=O)CCCCCCCCC , concentration at 0.292 days observed: 6.42

====

# Method Notes: Example 18 cynomolgus monkey PK study (SC and IM)
# Assay type: in vivo, cynomolgus monkeys
# Condition Summary: male, cynomolgus monkey, plasma, sc, 20 mg/kg, SC 20 mg/kg equivalent of EFdA; Monkey 1002; 0.292 days; read-out: Example 18 plasma concentrations
Measured Quantity: concentration at 0.292 days
Number plus unit, in that order.

concentration at 0.292 days measured on C#C[C@]1(COC(=O)CCCCCCCCC)O[C@@H](n2cnc3c(N)nc(F)nc32)C[C@@H]1OC(=O)CCCCCCCCC = 6.67 ng/mL

====

Kindly supply the reported IC50 values for the records listed here.
# Test system: HIV pseudotyped virus (NL4-3 provirus, luciferase reporter), WT
# Method Notes: PSV (pseudotyped virus) assay, WT
# Condition Summary: Human immunodeficiency virus 1, NL43, 72 h, read-out: WT IC50
Supply the numeric figure in nM, leaving out any unit text.

Looking up C#C[C@]1(COC(=O)C2CCCCC2)O[C@@H](n2cnc3c(N)nc(F)nc32)C[C@@H]1O [Example 1] , I found its IC50 recorded as 2

Record summary for C#C[C@]1(COC(=O)CCCC)O[C@@H](n2cnc3c(N)nc(F)nc32)C[C@@H]1OC(=O)CCCCCCCC [Example 22] : reported IC50 = 7

Value of measured IC50 for the entry C#C[C@@]12COC(=O)CCCCCCCCCCCCC(=O)O[C@H]1C[C@H](n1cnc3c(N)nc(F)nc31)O2 [Example 33] : 17

// recorded IC50 for C#C[C@]1(COC(=O)CCCC)O[C@@H](n2cnc3c(N)nc(F)nc32)C[C@@H]1OC(=O)CCCCCCCCCCCC [Example 19] : 18

For record C#C[C@]1(COC(=O)CCCC(=O)OC(COC(=O)CCCCCC)COC(=O)CCCCCC)O[C@@H](n2cnc3c(N)nc(F)nc32)C[C@@H]1O [Example 12] the listed IC50 is 34

What the record says about C#C[C@]1(COC(=O)COCCOCCOC)O[C@@H](n2cnc3c(N)nc(F)nc32)C[C@@H]1O [Example 7] : IC50 is 4

The reported IC50 of the compound C#C[C@]1(COC(=O)COCCOCCCC)O[C@@H](n2cnc3c(N)nc(F)nc32)C[C@@H]1O [Example 8] was 2

So for C#C[C@]1(COC(=O)CCCCCCCCC(=O)O)O[C@@H](n2cnc3c(N)nc(F)nc32)C[C@@H]1O [Example 9] , the logged IC50 turned out to be 35

C#C[C@]1(COC(=O)CCCC)O[C@@H](n2cnc3c(NC(=O)CCCCCCC)nc(F)nc32)C[C@@H]1O [Example 26] has a reported IC50 of 7

Reported IC50 for C#C[C@]1(COC(=O)CCCC)O[C@@H](n2cnc3c(NC(=O)CCCCCCCCCCCCC)nc(F)nc32)C[C@@H]1O [Example 27] was 8

Kindly note the recorded IC50 for C#C[C@]1(COC(=O)CCCC)O[C@@H](n2cnc3c(N)nc(F)nc32)C[C@@H]1OC(=O)CCCCCCCCCC [Example 21] , which is 7

IC50 measured on C#C[C@]1(COC(=O)CCCC)O[C@@H](n2cnc3c(N)nc(F)nc32)C[C@@H]1OC(=O)CC [Example 24] = 66

GET /value?item= C#C[C@]1(COC(=O)[C@H]2CC[C@H](CCCCC)CC2)O[C@@H](n2cnc3c(N)nc(F)nc32)C[C@@H]1O [Example 5] &field=IC50 returns 1

Record C#C[C@]1(COC(=O)[C@H]2CC[C@H](C(C)(C)C)CC2)O[C@@H](n2cnc3c(N)nc(F)nc32)C[C@@H]1O [Example 4] . Reported IC50: 3

====

# Method Notes: Example 18 cynomolgus monkey PK study (SC and IM)
# Format: in vivo, cynomolgus monkeys
# Condition Summary: male, cynomolgus monkey, plasma, intramuscular, 20 mg/kg equivalent of EFdA, IM 20 mg/kg equivalent of EFdA; Monkey 2001; 0.125 days; read-out: Example 18 plasma concentrations
Measured Quantity: concentration at 0.125 days (ng/mL)
Report as a plain number; the unit ng/mL is understood.

compound C#C[C@]1(COC(=O)CCCCCCCCC)O[C@@H](n2cnc3c(N)nc(F)nc32)C[C@@H]1OC(=O)CCCCCCCCC , concentration at 0.125 days observed: 53.7

====

# Method Notes: Example 18 cynomolgus monkey PK study (SC and IM)
# Assay type: in vivo, cynomolgus monkeys
# Condition Summary: male, cynomolgus monkey, plasma, intramuscular, 20 mg/kg equivalent of EFdA, IM 20 mg/kg equivalent of EFdA; Mean; 19 days; read-out: Example 18 plasma concentrations
Measured Quantity: concentration at 19 days

Query C#C[C@]1(COC(=O)CCCCCCCCC)O[C@@H](n2cnc3c(N)nc(F)nc32)C[C@@H]1OC(=O)CCCCCCCCC [Example 18] yields concentration at 19 days of 0.124 ng/mL

====

# Method Notes: Example 18 cynomolgus monkey PK study (SC and IM)
# Assay type: in vivo, cynomolgus monkeys
# Condition Summary: male, cynomolgus monkey, plasma, sc, 20 mg/kg, SC 20 mg/kg equivalent of EFdA; Monkey 1002; 2 days; read-out: Example 18 plasma concentrations
Measured Quantity: concentration at 2 days (ng/mL)
Provide only the numeric value, understood in ng/mL.

Form field concentration at 2 days, entry C#C[C@]1(COC(=O)CCCCCCCCC)O[C@@H](n2cnc3c(N)nc(F)nc32)C[C@@H]1OC(=O)CCCCCCCCC : 0.23

====

# Method Notes: Example 18 cynomolgus monkey PK study (SC and IM)
# Format: in vivo, cynomolgus monkeys
# Condition Summary: male, cynomolgus monkey, plasma, sc, 20 mg/kg, SC 20 mg/kg equivalent of EFdA; Monkey 1001; 2 days; read-out: Example 18 plasma concentrations
Measured Quantity: concentration at 2 days (ng/mL)
Unit ng/mL implied. Number only.

Value of measured concentration at 2 days for the entry C#C[C@]1(COC(=O)CCCCCCCCC)O[C@@H](n2cnc3c(N)nc(F)nc32)C[C@@H]1OC(=O)CCCCCCCCC : 0.734

====

# Method Notes: Example 18 cynomolgus monkey PK study (SC and IM)
# Assay type: in vivo, cynomolgus monkeys
# Condition Summary: male, cynomolgus monkey, plasma, intramuscular, 20 mg/kg equivalent of EFdA, IM 20 mg/kg equivalent of EFdA; Monkey 2002; 1 days; read-out: Example 18 plasma concentrations
Measured Quantity: concentration at 1 days (ng/mL)
Express the result in ng/mL but write the number alone.

// sample C#C[C@]1(COC(=O)CCCCCCCCC)O[C@@H](n2cnc3c(N)nc(F)nc32)C[C@@H]1OC(=O)CCCCCCCCC , its concentration at 1 days was 110
